- assay_text: MicroPET blood and normal organ uptake in T47D and MDA-MB-435 tumor-bearing nude mice
- assay_setup: female, nude, mouse, kidney, iv, total radioactivity
reported_endpoint: tissue uptake at 2 h (%ID/g)
Entry rule: numbers only, all in %ID/g.

Fill in the blank: the reported tissue uptake at 2 h of CSCC[C@H](NC(=O)[C@H](CC(C)C)NC(=O)[C@H](Cc1c[nH]cn1)NC(=O)CNC(=O)[C@@H](NC(=O)[C@H](C)NC(=O)[C@H](Cc1c[nH]c2ccccc12)NC(=O)[C@H](CCC(N)=O)NC(=O)CCCCCNC(=O)CC[C@H](NC(=O)COCCOCCOCCNC(=O)c1ccc([18F])cc1)C(=O)NCCCC[C@@H]1NC(=O)[C@@H](Cc2ccc(O)cc2)NC(=O)[C@H](CC(=O)O)NC(=O)CNC(=O)[C@H](CCCNC(=N)N)NC1=O)C(C)C)C(N)=O [^18F-FB-PEG3-RGD-BBN] is ____.
0.74

* * *

- assay_text: MicroPET of T47D tumor-bearing mice
- Assay type: in vivo
- assay_setup: female, nude, mouse, T47D tumor, iv, total radioactivity, orthotopic model, 24 h
reported_endpoint: tissue uptake at 24 h (%ID/g)
Entry rule: numbers only, all in %ID/g.

Fill in the blank: the reported tissue uptake at 24 h of CSCC[C@H](NC(=O)[C@H](CC(C)C)NC(=O)[C@H](Cc1c[nH]cn1)NC(=O)CNC(=O)[C@@H](NC(=O)[C@H](C)NC(=O)[C@H](Cc1c[nH]c2ccccc12)NC(=O)[C@H](CCC(N)=O)NC(=O)CCCCCNC(=O)CC[C@H](NC(=S)Nc1ccc(C[C@H]2CN(CC(=O)O)CCN(CC(=O)O)CCN2CC(=O)O)cc1)C(=O)NCCCC[C@@H]1NC(=O)[C@@H](Cc2ccc(O)cc2)NC(=O)[C@H](CC(=O)O)NC(=O)CNC(=O)[C@H](CCCNC(=N)N)NC1=O)C(C)C)C(N)=O [^64Cu-NOTA-RGD-BBN, metal not drawn] is ____.
1.38

* * *

- assay_text: in vivo
- assay_setup: male, athymic nude, mouse, in vivo, iv, 5.5 MBq, total radioactivity, Blood uptake
reported_endpoint: tissue uptake at 0.5 h

Fill in the blank: the reported tissue uptake at 0.5 h of CSCC[C@H](NC(=O)[C@H](CC(C)C)NC(=O)[C@H](Cc1c[nH]cn1)NC(=O)CNC(=O)[C@@H](NC(=O)[C@H](C)NC(=O)[C@H](Cc1c[nH]c2ccccc12)NC(=O)[C@H](CCC(N)=O)NC(=O)CCCCCNC(=S)Nc1ccc(C[C@H]2CN(CC(=O)O)CCN(CC(=O)O)CCN2CC(=O)O)cc1)C(C)C)C(N)=O [^64Cu-NOTA-BBN, metal not drawn, reference compound] is ____.
< 1 %ID/g

* * *

- assay_text: in vivo
- assay_setup: mouse, in vivo, iv, 5.5 MBq, total radioactivity, Kidney uptake
Measured tissue uptake at 4 h of individual entries

// worked examples, tissue uptake at 4 h included
compound="N=C(N)NCCC[C@@H]1NC(=O)[C@H](CCCCNC(=S)Nc2ccc(C[C@H]3CN(CC(=O)O)CCN(CC(=O)O)CCN3CC(=O)O)cc2)NC(=O)[C@@H](Cc2ccc(O)cc2)NC(=O)[C@H](CC(=O)O)NC(=O)CNC1=O [^64Cu-NOTA-RGD, metal not drawn, reference compound]" measured_result="1.43 %ID/g"
compound="CSCC[C@H](NC(=O)[C@H](CC(C)C)NC(=O)[C@H](Cc1c[nH]cn1)NC(=O)CNC(=O)[C@@H](NC(=O)[C@H](C)NC(=O)[C@H](Cc1c[nH]c2ccccc12)NC(=O)[C@H](CCC(N)=O)NC(=O)CCCCCNC(=O)CC[C@H](NC(=O)CN1CCN(CC(=O)O)CCN(CC(=O)O)CCN(CC(=O)O)CC1)C(=O)NCCCC[C@@H]1NC(=O)[C@@H](Cc2ccc(O)cc2)NC(=O)[C@H](CC(=O)O)NC(=O)CNC(=O)[C@H](CCCNC(=N)N)NC1=O)C(C)C)C(N)=O [^64Cu-DOTA-RGD-BBN, metal not drawn]" measured_result="2.51 %ID/g"
compound="CSCC[C@H](NC(=O)[C@H](CC(C)C)NC(=O)[C@H](Cc1c[nH]cn1)NC(=O)CNC(=O)[C@@H](NC(=O)[C@H](C)NC(=O)[C@H](Cc1c[nH]c2ccccc12)NC(=O)[C@H](CCC(N)=O)NC(=O)CCCCCNC(=S)Nc1ccc(C[C@H]2CN(CC(=O)O)CCN(CC(=O)O)CCN2CC(=O)O)cc1)C(C)C)C(N)=O [^64Cu-NOTA-BBN, metal not drawn, reference compound]" measured_result="0.76 %ID/g"

Now look at this one.
Fill in the blank: the reported tissue uptake at 4 h of CSCC[C@H](NC(=O)[C@H](CC(C)C)NC(=O)[C@H](Cc1c[nH]cn1)NC(=O)CNC(=O)[C@@H](NC(=O)[C@H](C)NC(=O)[C@H](Cc1c[nH]c2ccccc12)NC(=O)[C@H](CCC(N)=O)NC(=O)CCCCCNC(=O)CC[C@H](NC(=S)Nc1ccc(C[C@H]2CN(CC(=O)O)CCN(CC(=O)O)CCN2CC(=O)O)cc1)C(=O)NCCCC[C@@H]1NC(=O)[C@@H](Cc2ccc(O)cc2)NC(=O)[C@H](CC(=O)O)NC(=O)CNC(=O)[C@H](CCCNC(=N)N)NC1=O)C(C)C)C(N)=O [^64Cu-NOTA-RGD-BBN, metal not drawn] is ____.
2.3 %ID/g

* * *

Measured tissue uptake at 0.5 h of individual entries
- assay_text: in vivo
- assay_setup: male, athymic nude, mouse, in vivo, iv, 3.7 MBq, total radioactivity, PC-3 tumor uptake, dynamic scan
Entry rule: numbers only, all in %ID/g.

compound="CSCC[C@H](NC(=O)[C@H](CC(C)C)NC(=O)[C@H](Cc1c[nH]cn1)NC(=O)CNC(=O)[C@@H](NC(=O)[C@H](C)NC(=O)[C@H](Cc1c[nH]c2ccccc12)NC(=O)[C@H](CCC(N)=O)NC(=O)CCCCCNC(=O)CC[C@H](NC(=O)COCCOCCOCCNC(=O)c1ccc([18F])cc1)C(=O)NCCCC[C@@H]1NC(=O)[C@@H](Cc2ccc(O)cc2)NC(=O)[C@H](CC(=O)O)NC(=O)CNC(=O)[C@H](CCCNC(=N)N)NC1=O)C(C)C)C(N)=O [^18F-FB-PEG3-RGD-BBN]" measured_result=5.64

Now look at this one.
Fill in the blank: the reported tissue uptake at 0.5 h of CSCC[C@H](NC(=O)[C@H](CC(C)C)NC(=O)[C@H](Cc1c[nH]cn1)NC(=O)CNC(=O)[C@@H](NC(=O)[C@H](C)NC(=O)[C@H](Cc1c[nH]c2ccccc12)NC(=O)[C@H](CCC(N)=O)NC(=O)CCCCCNC(=O)CC[C@H](NC(=S)Nc1ccc(C[C@H]2CN(CC(=O)O)CCN(CC(=O)O)CCN2CC(=O)O)cc1)C(=O)NCCCC[C@@H]1NC(=O)[C@@H](Cc2ccc(O)cc2)NC(=O)[C@H](CC(=O)O)NC(=O)CNC(=O)[C@H](CCCNC(=N)N)NC1=O)C(C)C)C(N)=O [^68Ga-NOTA-RGD-BBN, metal not drawn] is ____.
6.7

* * *

Measured tissue uptake at 1 h of individual entries
- assay_text: in vivo
- assay_setup: mouse, in vivo, iv, 5.5 MBq, total radioactivity, Liver uptake
Entry rule: numbers only, all in %ID/g.

// worked examples, tissue uptake at 1 h included
compound="N=C(N)NCCC[C@@H]1NC(=O)[C@H](CCCCNC(=S)Nc2ccc(C[C@H]3CN(CC(=O)O)CCN(CC(=O)O)CCN3CC(=O)O)cc2)NC(=O)[C@@H](Cc2ccc(O)cc2)NC(=O)[C@H](CC(=O)O)NC(=O)CNC1=O [^64Cu-NOTA-RGD, metal not drawn, reference compound]" measured_result=2.68
compound="CSCC[C@H](NC(=O)[C@H](CC(C)C)NC(=O)[C@H](Cc1c[nH]cn1)NC(=O)CNC(=O)[C@@H](NC(=O)[C@H](C)NC(=O)[C@H](Cc1c[nH]c2ccccc12)NC(=O)[C@H](CCC(N)=O)NC(=O)CCCCCNC(=O)CC[C@H](NC(=S)Nc1ccc(C[C@H]2CN(CC(=O)O)CCN(CC(=O)O)CCN2CC(=O)O)cc1)C(=O)NCCCC[C@@H]1NC(=O)[C@@H](Cc2ccc(O)cc2)NC(=O)[C@H](CC(=O)O)NC(=O)CNC(=O)[C@H](CCCNC(=N)N)NC1=O)C(C)C)C(N)=O [^64Cu-NOTA-RGD-BBN, metal not drawn]" measured_result=2.8
compound="CSCC[C@H](NC(=O)[C@H](CC(C)C)NC(=O)[C@H](Cc1c[nH]cn1)NC(=O)CNC(=O)[C@@H](NC(=O)[C@H](C)NC(=O)[C@H](Cc1c[nH]c2ccccc12)NC(=O)[C@H](CCC(N)=O)NC(=O)CCCCCNC(=O)CC[C@H](NC(=O)CN1CCN(CC(=O)O)CCN(CC(=O)O)CCN(CC(=O)O)CC1)C(=O)NCCCC[C@@H]1NC(=O)[C@@H](Cc2ccc(O)cc2)NC(=O)[C@H](CC(=O)O)NC(=O)CNC(=O)[C@H](CCCNC(=N)N)NC1=O)C(C)C)C(N)=O [^64Cu-DOTA-RGD-BBN, metal not drawn]" measured_result=3.05

Fill in the blank: the reported tissue uptake at 1 h of CSCC[C@H](NC(=O)[C@H](CC(C)C)NC(=O)[C@H](Cc1c[nH]cn1)NC(=O)CNC(=O)[C@@H](NC(=O)[C@H](C)NC(=O)[C@H](Cc1c[nH]c2ccccc12)NC(=O)[C@H](CCC(N)=O)NC(=O)CCCCCNC(=S)Nc1ccc(C[C@H]2CN(CC(=O)O)CCN(CC(=O)O)CCN2CC(=O)O)cc1)C(C)C)C(N)=O [^64Cu-NOTA-BBN, metal not drawn, reference compound] is ____.
8.85
